The measurements presented in this section are drawn from patent US11352340B2.

- target-or-test-system: PI3Kγ (p110γ) Recombinant Human Protein (Homo sapiens (Human), UniProt P48736)
- Sequence (P48736 whole entry): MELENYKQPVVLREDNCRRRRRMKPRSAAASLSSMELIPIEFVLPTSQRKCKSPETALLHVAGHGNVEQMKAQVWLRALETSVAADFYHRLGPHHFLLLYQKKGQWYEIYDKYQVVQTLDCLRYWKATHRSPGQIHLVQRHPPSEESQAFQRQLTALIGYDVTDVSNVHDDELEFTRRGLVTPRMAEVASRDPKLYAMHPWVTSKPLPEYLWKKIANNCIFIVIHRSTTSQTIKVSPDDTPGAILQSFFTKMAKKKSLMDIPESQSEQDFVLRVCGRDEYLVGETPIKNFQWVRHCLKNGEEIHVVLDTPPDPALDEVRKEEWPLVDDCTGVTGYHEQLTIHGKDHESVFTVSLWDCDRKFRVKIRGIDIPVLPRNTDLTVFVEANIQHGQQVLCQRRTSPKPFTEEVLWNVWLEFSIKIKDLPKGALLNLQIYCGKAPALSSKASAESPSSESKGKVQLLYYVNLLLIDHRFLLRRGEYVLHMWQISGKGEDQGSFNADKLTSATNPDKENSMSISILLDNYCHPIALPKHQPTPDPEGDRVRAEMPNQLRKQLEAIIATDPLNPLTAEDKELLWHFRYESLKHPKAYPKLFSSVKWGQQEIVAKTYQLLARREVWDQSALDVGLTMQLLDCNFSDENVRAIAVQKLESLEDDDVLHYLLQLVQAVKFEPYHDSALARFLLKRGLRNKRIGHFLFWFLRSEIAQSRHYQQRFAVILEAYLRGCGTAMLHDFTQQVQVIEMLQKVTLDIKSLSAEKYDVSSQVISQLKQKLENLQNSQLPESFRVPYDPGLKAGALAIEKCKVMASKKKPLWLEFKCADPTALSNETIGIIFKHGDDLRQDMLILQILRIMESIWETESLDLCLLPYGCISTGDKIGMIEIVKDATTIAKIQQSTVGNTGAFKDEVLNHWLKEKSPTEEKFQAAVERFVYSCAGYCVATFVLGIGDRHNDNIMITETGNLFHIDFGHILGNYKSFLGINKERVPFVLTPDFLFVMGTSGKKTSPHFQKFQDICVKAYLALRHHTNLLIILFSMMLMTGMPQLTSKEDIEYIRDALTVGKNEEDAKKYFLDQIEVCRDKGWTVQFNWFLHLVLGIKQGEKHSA
- test-method-notes: PI3K-γ Scintillation Proximity Assay
- condition: read-out: PI3K-gamma SPA IC50
pIC50: −log10 of the molar value. Where a name gives a salt, the structure may show the parent alone.
In this section, each of the compounds is paired with its reported pIC50.
observed-property: pIC50

compound="Cc1nc(-c2cc(-c3cncc(C(=O)N4CCC(=O)C4)c3)ccn2)[nH]c1C [Example 168, trifluoroacetate salt]" observed_property=pIC50 reported="≥ 7.30"
compound="CC(=O)N1CCN(C(=O)c2cncc(-c3ccnc(-c4nc(C)c(C)[nH]4)c3)c2)CC1 [Example 159, trifluoroacetate salt]" observed_property=pIC50 reported="≥ 7.30"
compound="O=S(=O)(c1ccccc1)N1CCC(c2c[nH]c(-c3cc(-c4cnn(Cc5ccc(Cl)cc5)c4)ccn3)n2)C1 (stereo not shown) [Example 302, trifluoroacetate salt]" observed_property=pIC50 reported="≥ 6.30"
compound=COc1cncc(-c2ccnc(-c3nc(C)c(C)[nH]3)c2)c1 observed_property=pIC50 reported="≥ 7.30"
compound=Cc1[nH]c(-c2cc(-c3cncc(S(C)(=O)=O)c3)ccn2)nc1C(=O)N1CC[C@H](O)C1 observed_property=pIC50 reported="≥ 6.30"
compound="c1ccc(-c2cnc(-c3cc(-c4cnn(CCN5CCOCC5)c4)ccn3)[nH]2)cc1 [Example 26, trifluoroacetate salt]" observed_property=pIC50 reported="< 6.30"
compound=COc1cncc(-c2ccnc(-c3cnc(N)[nH]3)c2)c1 observed_property=pIC50 reported="< 6.30"

* * *

In this section, each of the molecules is paired with its reported pIC50.
- target-or-test-system: PI3Kδ (p110δ/p85α) Recombinant Human Protein (Homo sapiens (Human), UniProt O00329)
- Sequence (O00329 whole entry): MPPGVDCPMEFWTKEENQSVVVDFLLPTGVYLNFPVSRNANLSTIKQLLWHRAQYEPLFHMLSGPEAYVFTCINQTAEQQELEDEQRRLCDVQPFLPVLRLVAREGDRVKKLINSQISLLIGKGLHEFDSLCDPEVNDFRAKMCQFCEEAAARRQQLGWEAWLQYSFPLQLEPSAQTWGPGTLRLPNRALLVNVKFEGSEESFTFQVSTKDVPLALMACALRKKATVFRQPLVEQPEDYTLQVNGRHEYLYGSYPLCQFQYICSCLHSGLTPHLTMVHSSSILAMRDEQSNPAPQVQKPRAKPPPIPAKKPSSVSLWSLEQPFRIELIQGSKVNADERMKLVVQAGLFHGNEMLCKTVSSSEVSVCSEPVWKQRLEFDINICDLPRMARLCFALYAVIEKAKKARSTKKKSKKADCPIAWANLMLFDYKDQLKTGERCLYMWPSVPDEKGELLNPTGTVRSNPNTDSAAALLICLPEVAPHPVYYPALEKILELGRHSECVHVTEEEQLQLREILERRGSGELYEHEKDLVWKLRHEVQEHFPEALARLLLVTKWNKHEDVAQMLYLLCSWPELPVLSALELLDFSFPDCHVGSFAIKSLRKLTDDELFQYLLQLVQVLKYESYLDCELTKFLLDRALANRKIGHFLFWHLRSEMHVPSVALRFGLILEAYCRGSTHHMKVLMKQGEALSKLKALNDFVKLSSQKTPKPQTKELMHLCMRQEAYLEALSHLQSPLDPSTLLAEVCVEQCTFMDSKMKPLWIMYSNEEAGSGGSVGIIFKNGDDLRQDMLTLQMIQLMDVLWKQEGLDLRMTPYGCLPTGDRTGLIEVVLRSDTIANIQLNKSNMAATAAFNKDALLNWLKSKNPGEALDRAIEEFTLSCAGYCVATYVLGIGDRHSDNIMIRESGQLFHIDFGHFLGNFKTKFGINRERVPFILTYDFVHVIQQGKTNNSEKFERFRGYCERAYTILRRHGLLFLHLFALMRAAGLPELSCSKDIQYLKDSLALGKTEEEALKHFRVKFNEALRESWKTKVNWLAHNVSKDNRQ
- Sequence (P27986 whole entry partner): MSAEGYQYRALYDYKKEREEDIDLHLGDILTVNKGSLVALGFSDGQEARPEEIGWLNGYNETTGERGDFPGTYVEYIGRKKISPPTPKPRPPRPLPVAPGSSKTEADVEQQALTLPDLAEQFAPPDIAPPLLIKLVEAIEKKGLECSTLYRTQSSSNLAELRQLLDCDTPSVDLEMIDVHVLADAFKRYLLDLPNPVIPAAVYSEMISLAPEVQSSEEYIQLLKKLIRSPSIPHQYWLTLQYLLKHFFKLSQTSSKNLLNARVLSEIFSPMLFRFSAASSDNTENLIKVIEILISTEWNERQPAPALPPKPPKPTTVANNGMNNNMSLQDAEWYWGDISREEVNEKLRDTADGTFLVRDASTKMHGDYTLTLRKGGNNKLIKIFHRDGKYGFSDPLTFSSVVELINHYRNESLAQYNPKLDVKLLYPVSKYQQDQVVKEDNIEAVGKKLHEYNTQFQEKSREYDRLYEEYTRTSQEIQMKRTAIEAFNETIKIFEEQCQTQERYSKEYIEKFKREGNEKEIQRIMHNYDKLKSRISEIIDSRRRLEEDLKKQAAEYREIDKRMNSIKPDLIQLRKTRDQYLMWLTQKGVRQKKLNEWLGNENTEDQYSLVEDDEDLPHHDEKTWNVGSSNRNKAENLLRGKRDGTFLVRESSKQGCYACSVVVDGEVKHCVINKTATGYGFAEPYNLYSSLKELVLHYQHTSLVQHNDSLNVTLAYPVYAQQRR
- test-method-notes: PI3Kδ Scintillation Proximity Assay
- condition: read-out: PI3K-delta SPA IC50
pIC50: −log10 of the molar value. Counter-ions that a name gives are not always drawn.
observed-property: pIC50

molecule="Cc1[nH]c(-c2cc(-c3cnn(Cc4ccc(Cl)cc4)c3)ccn2)nc1C#N [Example 297, Trifluoroacetate Salt]" reported="< 6.30"
molecule="Cc1[nH]c(-c2cc(-c3cncc(N4CCOCC4)c3)ccn2)nc1CO [Example 122]" reported="≥ 6.30"
molecule="COc1cncc(-c2ccnc(-c3ncc(-c4ccc(S(=O)(=O)N(C)C)cc4)[nH]3)c2)c1 [Example 83, trifluoroacetate salt]" reported="≥ 7.30"
molecule="Cn1cc(-c2ccnc(-c3ncc(-c4ccccc4)[nH]3)c2)cn1 [Example 8, trifluoroacetate salt]" reported="≥ 6.30"
molecule="NC(=O)CCn1cc(-c2ccnc(-c3ncc(-c4ccccc4)[nH]3)c2)cn1 [Example 53]" reported="< 6.30"
molecule="Cc1nc(-c2cc(-c3cncc(C(=O)N4CC[C@@H](N(C)C)C4)c3)ccn2)[nH]c1C [Example 161, trifluoroacetate salt]" reported="≥ 7.00"
molecule="Cc1nc(-c2cc(-c3cncc(N4CCOCC4)c3)ccn2)[nH]c1C [Example 98, trifluoroacetate salt]" reported="≥ 7.00"
molecule="CNc1nnc(-c2cc(-c3cncc(OC)c3)ccn2)[nH]1 [Example 68, trifluoroacetate salt]" reported="< 6.30"
molecule="Cc1[nH]c(-c2cc(-c3cncc(S(C)(=O)=O)c3)ccn2)nc1C(=O)NC1CCCC1 [Example 243]" reported="≥ 7.30"
molecule="COc1cncc(-c2ccnc(-c3ncc(C4CC4)[nH]3)c2)c1 [Example 86]" reported="≥ 6.30"
molecule="Cc1nc(-c2cc(-c3cncc(C(=O)N4CCC(O)CC4)c3)ccn2)[nH]c1C [Example 177]" reported="≥ 7.00"
molecule="Clc1cccc(Cn2cc(-c3ccnc(-c4ncc(-c5ccccc5)[nH]4)c3)cn2)c1 [Example 21, trifluoroacetate salt]" reported="< 6.30"
molecule="Cc1[nH]c(-c2cc(-c3cncc(S(C)(=O)=O)c3)ccn2)nc1C(=O)N1CCOCC1 [Example 244]" reported="≥ 7.30"
molecule="O=C(Nc1cncc(-c2ccnc(-c3ncc(-c4ccccc4)[nH]3)c2)c1)c1cccc(Cl)c1 [Example 134]" reported="< 6.30"
molecule="Cc1nc(-c2cc(-c3cncc(C(=O)NCC4CCCO4)c3)ccn2)[nH]c1C (racemic) [Example 167, trifluoroacetate salt]" reported="≥ 6.30"

* * *

- target-or-test-system: PI3Kγ (p110γ) Recombinant Human Protein (Homo sapiens (Human), UniProt P48736)
- test-method-notes: PI3K-γ Scintillation Proximity Assay
- condition: read-out: PI3K-gamma SPA IC50
pIC50: −log10 of the molar value. Where a name gives a salt, the structure may show the parent alone.
In this section, each of the compounds is paired with its reported pIC50.
observed-property: pIC50

compound="Clc1cccc(Cn2cc(-c3ccnc(-c4ncc(-c5ccccc5)[nH]4)c3)cn2)c1 [Example 21, trifluoroacetate salt]" observed_property=pIC50 reported="≥ 6.30"
compound="Cc1nc(-c2cc(-c3cncc(C(=O)N4CCCN(C)CC4)c3)ccn2)[nH]c1C [Example 200]" observed_property=pIC50 reported="≥ 6.30"
compound="Cc1[nH]c(-c2cc(-c3cncc(S(C)(=O)=O)c3)ccn2)nc1C(F)F [Example 121, Trifluoroacetate Salt]" observed_property=pIC50 reported="≥ 7.30"
compound="c1ccc(-c2cnc(-c3cc(-c4cnn(C5CCOCC5)c4)ccn3)[nH]2)cc1 [Example 47, trifluoroacetate salt]" observed_property=pIC50 reported="≥ 6.30"
compound="CCc1[nH]c(-c2cc(-c3cncc(S(C)(=O)=O)c3)ccn2)nc1C [Example 117]" observed_property=pIC50 reported="≥ 7.30"
compound="Cc1[nH]c(-c2cc(-c3cncc(N4CCOCC4)c3)ccn2)nc1C(=O)NC1CCCCC1 [Example 265]" observed_property=pIC50 reported="≥ 7.30"
compound="Cc1[nH]c(-c2cc(-c3cncc(N4CCOCC4)c3)ccn2)nc1C(=O)NC1Cc2ccccc2C1 [Example 282, trifluoroacetate salt]" observed_property=pIC50 reported="≥ 7.30"
compound="Cc1nc(-c2cc(-c3cncc(N4CCOCC4)c3)ccn2)[nH]c1C1CC1 [Example 104, trifluoroacetate salt]" observed_property=pIC50 reported="≥ 7.30"
compound="Cc1[nH]c(-c2cc(-c3cncc(N4CCOCC4)c3)ccn2)nc1CNC1CCOCC1 [Example 283]" observed_property=pIC50 reported="< 6.30"
compound="Cc1[nH]c(-c2cc(-c3cncc(N4CCOCC4)c3)ccn2)nc1CNC(C)C [Example 285]" observed_property=pIC50 reported="< 6.30"
compound="Cc1[nH]c(-c2cc(-c3cncc(S(C)(=O)=O)c3)ccn2)nc1C(=O)N1CC(O)C1 [Example 247]" observed_property=pIC50 reported="≥ 7.30"
compound="CCn1cc(-c2ccnc(-c3ncc(-c4ccccc4)[nH]3)c2)cn1 [Example 10, trifluoroacetate salt]" observed_property=pIC50 reported="≥ 6.30"
compound="Cc1nc(-c2cc(C3=CCCN(C(=O)c4ccccc4)C3)ccn2)[nH]c1C [Example 222, trifluoroacetate salt]" observed_property=pIC50 reported="< 6.30"
compound="Cc1nc(-c2cc(-c3cncc(C(=O)N4CCC(C(F)(F)F)C4)c3)ccn2)[nH]c1C (racemic) [Example 178, trifluoroacetate salt]" observed_property=pIC50 reported="≥ 7.30"
compound="CS(=O)(=O)N1CCC(c2c[nH]c(-c3cc(-c4cnn(Cc5ccc(Cl)cc5)c4)ccn3)n2)C1 (single isomer, unassigned) [Example 304, trifluoroacetate salt]" observed_property=pIC50 reported="≥ 7.00"
compound="Cc1[nH]c(-c2cc(-c3cncc(N4CCOCC4)c3)ccn2)nc1C(=O)N[C@@H]1CCN(Cc2ccccc2)C1 [Example 280, trifluoroacetate salt]" observed_property=pIC50 reported="≥ 6.30"
